pIC50: −log10 of the molar value.
Consider the following pIC50 values measured on ovine COX-1 (Ovis aries, UniProt P05979).
Sequence (P05979 25-600): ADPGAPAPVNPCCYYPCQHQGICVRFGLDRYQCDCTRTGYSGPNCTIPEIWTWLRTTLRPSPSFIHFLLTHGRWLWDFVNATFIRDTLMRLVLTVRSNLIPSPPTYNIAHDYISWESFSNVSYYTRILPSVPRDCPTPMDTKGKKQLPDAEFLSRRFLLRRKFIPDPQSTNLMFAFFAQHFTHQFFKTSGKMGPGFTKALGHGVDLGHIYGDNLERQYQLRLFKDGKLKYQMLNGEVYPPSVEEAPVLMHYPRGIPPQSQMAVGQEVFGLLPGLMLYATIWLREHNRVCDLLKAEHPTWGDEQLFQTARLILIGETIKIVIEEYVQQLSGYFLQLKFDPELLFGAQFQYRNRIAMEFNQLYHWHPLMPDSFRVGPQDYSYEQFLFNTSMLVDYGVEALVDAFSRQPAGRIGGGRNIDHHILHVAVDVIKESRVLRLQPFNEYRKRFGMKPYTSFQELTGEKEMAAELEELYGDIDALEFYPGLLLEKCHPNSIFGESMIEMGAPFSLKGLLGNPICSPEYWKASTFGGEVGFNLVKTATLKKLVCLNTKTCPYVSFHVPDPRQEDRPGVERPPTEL

MOLECULE | MEASURED_TARGET | pIC50
CN1c2ccccc2C(=O)N(NC(=O)Cc2c[nH]c3ccccc23)C1c1ccc([N+](=O)[O-])cc1 (stereo not drawn) | ovine COX-1 (Ovis aries, UniProt P05979) | 5.16
O=C(CSc1nc2ccccc2c(=O)n1NC(=O)c1ccccc1)NNC(=O)c1ccccc1 [14a] | ovine COX-1 (Ovis aries, UniProt P05979) | 4.96
O=C(CSc1nc2ccccc2c(=O)n1NC(=O)c1ccccc1)NNC(=O)c1ccc(Cl)cc1 [14b] | ovine COX-1 (Ovis aries, UniProt P05979) | 4.89
